- Experiment: Solubility at pH 7.4
- Assay type: physicochemical
- Condition: buffer
Measured metric: solubility

Below, 3 compounds whose answers are already recorded.
Compound	solubility
CN1C(=O)NC(=O)[C@]12Cc1ccc(NC(=O)Cn3c(=O)n(C4CCS(=O)(=O)C4)c4ccccc43)cc1C2 (some centres undefined)	> 100 µg/mL
CN1C(=O)NC(=O)[C@]12Cc1ccc(NC(=O)Cn3c(=O)n(-c4nccs4)c4ccccc43)cc1C2	< 1 µg/mL
CN1C(=O)NC(=O)[C@]12Cc1ccc(NC(=O)Cn3c(=O)n(-c4cncnc4)c4ccccc43)cc1C2	> 100 µg/mL

Okay, next one:
I'd like to know its solubility. The compound in question is CN1C(=O)NC(=O)[C@]12Cc1ccc(NC(=O)Cn3c(=O)n(-c4ccccn4)c4ccccc43)cc1C2 < 1 µg/mL

====

Ki overview
- Test target: Calcitonin gene-related peptide type 1 receptor (Homo sapiens, UniProt O60894+Q16602)
- Sequence (Q16602 whole entry, one chain of several): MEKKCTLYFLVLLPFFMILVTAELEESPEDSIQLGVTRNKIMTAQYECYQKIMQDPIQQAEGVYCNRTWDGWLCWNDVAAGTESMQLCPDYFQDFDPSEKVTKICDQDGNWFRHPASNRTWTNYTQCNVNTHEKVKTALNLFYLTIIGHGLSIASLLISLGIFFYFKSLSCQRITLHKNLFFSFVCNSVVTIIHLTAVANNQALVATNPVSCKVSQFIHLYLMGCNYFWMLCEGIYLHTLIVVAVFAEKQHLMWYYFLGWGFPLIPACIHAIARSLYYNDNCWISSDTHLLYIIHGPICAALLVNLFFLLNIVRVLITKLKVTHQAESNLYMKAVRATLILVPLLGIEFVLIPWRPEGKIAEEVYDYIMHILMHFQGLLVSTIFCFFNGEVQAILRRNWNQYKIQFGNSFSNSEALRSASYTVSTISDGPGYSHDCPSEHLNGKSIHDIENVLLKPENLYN
- Experiment: Displacement of [125I]hCGRP from human cloned CGRP receptor expressed in HEK293 cells
Value expressed in nM; do not type the unit.

Solved cases below.
Compound	Ki [nM]
Cn1c(=O)n(CC(=O)Nc2ccc3c(c2)CC2(C3)NC(=O)NC2=O)c2ccccc21 (stereo not drawn)	78
CN1C(=O)NC(=O)C12Cc1ccc(NC(=O)Cn3c(=O)oc4ccccc43)cc1C2 (stereo not drawn)	103
CN1C(=O)NC(=O)[C@]12Cc1ccc(NC(=O)Cn3c(=O)n(C4CCS(=O)(=O)C4)c4ccccc43)cc1C2 (stereo partly drawn)	17

Reported Ki, compound CN1C(=O)NC(=O)[C@]12Cc1ccc(NC(=O)Cn3c(=O)n(-c4cncnc4)c4ccccc43)cc1C2 : ____ 9.5

Name the reported Ki value associated with the compound CN1C(=O)NC(=O)[C@]12Cc1ccc(NC(=O)Cn3c(=O)n(-c4nccc(C(F)(F)F)n4)c4ccccc43)cc1C2 10

So what's the measured Ki for this one? CN1C(=O)NC(=O)[C@]12Cc1ccc(NC(=O)Cn3c(=O)n(-c4cc(F)cc(F)c4)c4ccccc43)cc1C2 29

Ki lookup needed for CN1C(=O)NC(=O)[C@]12Cc1ccc(NC(=O)Cn3c(=O)n(-c4cnsc4)c4ccccc43)cc1C2 , thanks. 6.8

// lookup Ki for CN1C(=O)NC(=O)[C@]12Cc1ccc(NC(=O)Cn3c(=O)n(-c4nccs4)c4ccccc43)cc1C2 8.7

====

- Experiment: Bioavailability in rhesus at 2 mg/kg, po
- Assay type: ADME, organism-based, Macaca mulatta
- Condition: rhesus monkey, in vivo
Measured metric: bioavailability

Could you share which bioavailability value was measured for CN1C(=O)NC(=O)[C@]12Cc1ccc(NC(=O)Cn3c(=O)n(-c4ccccn4)c4ccccc43)cc1C2 ? 29%

====

- Experiment: Bioavailability in dog at 2 mg/kg, po
- Type: ADME, organism-based, Canis lupus familiaris
- Condition: in vivo
Measured metric: bioavailability (%)
Answer with a number only, understood to be in %.

Which bioavailability is listed for CN1C(=O)NC(=O)[C@]12Cc1ccc(NC(=O)Cn3c(=O)n(-c4ccccn4)c4ccccc43)cc1C2 ? 83

====

- Test target: Cytochrome P450 2C9 (Homo sapiens)
- Sequence (P11712 whole entry): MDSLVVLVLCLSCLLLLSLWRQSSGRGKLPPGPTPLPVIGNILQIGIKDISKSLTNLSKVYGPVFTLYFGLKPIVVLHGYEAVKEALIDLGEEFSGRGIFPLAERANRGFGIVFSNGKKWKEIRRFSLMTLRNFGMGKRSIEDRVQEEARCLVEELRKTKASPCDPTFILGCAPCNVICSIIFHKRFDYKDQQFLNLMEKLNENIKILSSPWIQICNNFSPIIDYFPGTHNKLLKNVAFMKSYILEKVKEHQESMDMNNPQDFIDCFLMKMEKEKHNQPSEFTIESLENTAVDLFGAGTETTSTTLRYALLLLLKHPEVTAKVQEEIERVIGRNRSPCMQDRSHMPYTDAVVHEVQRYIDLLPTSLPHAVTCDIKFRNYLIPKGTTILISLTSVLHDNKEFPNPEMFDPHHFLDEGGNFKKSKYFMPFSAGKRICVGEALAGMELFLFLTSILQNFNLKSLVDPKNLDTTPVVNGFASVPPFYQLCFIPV
pIC50: −log10 of the molar value.
Measured metric: pIC50

Which pIC50 is listed for CN1C(=O)NC(=O)[C@]12Cc1ccc(NC(=O)Cn3c(=O)n(-c4ccccn4)c4ccccc43)cc1C2 ? < 5.00

====

- Experiment: Half life in dog at 0.5 mg/kg, iv
- Type: ADME, organism-based, Canis lupus familiaris
- Design: dose 0.5 mg/kg, route intravenous
- Condition: in vivo
Measured metric: half-life
Write the numeric value and follow it with the unit.

Using the record for CN1C(=O)NC(=O)[C@]12Cc1ccc(NC(=O)Cn3c(=O)n(-c4ccccn4)c4ccccc43)cc1C2 , report its half-life. 4.8 h

====

- Experiment: Half life in rat at 2 mpk, iv
- Format: ADME, organism-based
- Condition: in vivo, 2 mg/kg
# Lookup of reported half-life keyed by entry
Write the numeric value and follow it with the unit.

Check out these entries, answers already filled in.
Compound	Measured metric	Reported result
CN1C(=O)NC(=O)[C@]12Cc1ccc(NC(=O)Cn3c(=O)n(-c4nccs4)c4ccccc43)cc1C2	half-life	2 h
CN1C(=O)NC(=O)[C@]12Cc1ccc(NC(=O)Cn3c(=O)n(-c4cc(F)cc(F)c4)c4ccccc43)cc1C2	half-life	6.5 h
CN1C(=O)NC(=O)[C@]12Cc1ccc(NC(=O)Cn3c(=O)n(-c4nccc(C(F)(F)F)n4)c4ccccc43)cc1C2	half-life	2.8 h
CN1C(=O)NC(=O)[C@]12Cc1ccc(NC(=O)Cn3c(=O)n(C4CCS(=O)(=O)C4)c4ccccc43)cc1C2 (stereo partly specified)	half-life	1.1 h
CN1C(=O)NC(=O)[C@]12Cc1ccc(NC(=O)Cn3c(=O)n(-c4ncccn4)c4ccccc43)cc1C2	half-life	1.1 h

# query: half-life of entry CN1C(=O)NC(=O)[C@]12Cc1ccc(NC(=O)Cn3c(=O)n(-c4cnccn4)c4ccccc43)cc1C2 1.1 h

# lookup: half-life of CN1C(=O)NC(=O)[C@]12Cc1ccc(NC(=O)Cn3c(=O)n(-c4ccccn4)c4ccccc43)cc1C2 1.6 h

Can you share its half-life? I mean this compound: CN1C(=O)NC(=O)[C@]12Cc1ccc(NC(=O)Cn3c(=O)n(-c4cnsc4)c4ccccc43)cc1C2 1 h

Which value of half-life has been reported for CN1C(=O)NC(=O)[C@]12Cc1ccc(NC(=O)Cn3c(=O)n(C4CCOC4)c4ccccc43)cc1C2 (stereo partly specified) in the records? 0.9 h

Entry CN1C(=O)NC(=O)[C@]12Cc1ccc(NC(=O)Cn3c(=O)n(-c4cncnc4)c4ccccc43)cc1C2 has what half-life? 0.5 h

Form field: reported half-life of COc1cccc(-n2c(=O)n(CC(=O)Nc3ccc4c(c3)C[C@]3(C4)C(=O)NC(=O)N3C)c3ccccc32)n1 1.2 h

====

- Experiment: Clearance in rat at 2 mpk, iv
- Condition: in vivo, 2 mg/kg
Measured metric: clearance (mL/min/kg)
Answer in mL/min/kg, number only, no unit symbol.

Cpd smiles	Unit string	clearance
CN1C(=O)NC(=O)[C@]12Cc1ccc(NC(=O)Cn3c(=O)n(-c4ncccn4)c4ccccc43)cc1C2	mL/min/kg	23
CN1C(=O)NC(=O)[C@]12Cc1ccc(NC(=O)Cn3c(=O)n(-c4cnsc4)c4ccccc43)cc1C2	mL/min/kg	60

Quick one: clearance of CN1C(=O)NC(=O)[C@]12Cc1ccc(NC(=O)Cn3c(=O)n(-c4nccc(C(F)(F)F)n4)c4ccccc43)cc1C2 ? 7.5

====

- Experiment: Bioavailability in rat at 10 mg/kg, po
- Assay type: ADME, organism-based
- Condition: in vivo
Measured metric: bioavailability (%)
State just the number; it will be interpreted in %.

Examples from the recorded data:
Compound	Unit string	bioavailability
CN1C(=O)NC(=O)[C@]12Cc1ccc(NC(=O)Cn3c(=O)n(-c4ncccn4)c4ccccc43)cc1C2	%	2
CN1C(=O)NC(=O)[C@]12Cc1ccc(NC(=O)Cn3c(=O)n(-c4cncnc4)c4ccccc43)cc1C2	%	0
CN1C(=O)NC(=O)[C@]12Cc1ccc(NC(=O)Cn3c(=O)n(-c4nccs4)c4ccccc43)cc1C2	%	20
CN1C(=O)NC(=O)[C@]12Cc1ccc(NC(=O)Cn3c(=O)n(C4CCS(=O)(=O)C4)c4ccccc43)cc1C2 (stereo partly drawn)	%	0
CN1C(=O)NC(=O)[C@]12Cc1ccc(NC(=O)Cn3c(=O)n(-c4ccccn4)c4ccccc43)cc1C2	%	36

Reported bioavailability for CN1C(=O)NC(=O)[C@]12Cc1ccc(NC(=O)Cn3c(=O)n(C4CCOC4)c4ccccc43)cc1C2 (stereo partly drawn) : what is it? 5

Recorded bioavailability for CN1C(=O)NC(=O)[C@]12Cc1ccc(NC(=O)Cn3c(=O)n(-c4cc(F)cc(F)c4)c4ccccc43)cc1C2 , please? 24

Find the recorded bioavailability belonging to CN1C(=O)NC(=O)[C@]12Cc1ccc(NC(=O)Cn3c(=O)n(-c4nccc(C(F)(F)F)n4)c4ccccc43)cc1C2 and report it. 0

====

- Test target: Calcitonin gene-related peptide type 1 receptor (Homo sapiens, UniProt O60894+Q16602)
- Experiment: Displacement of [125I]hCGRP from human cloned CGRP receptor expressed in HEK293 cells
Measured metric: log10(Ki) (log10 of the value in nM)
Hi team, quick reminder: these entries are log10 of Ki (nM).

Some solved cases for reference:
Compound	Reported result
O=C(Cn1c(=O)[nH]c2ccccc21)Nc1ccc2c(c1)CC1(C2)NC(=O)NC1=O (stereo not given)	2.45
CN1C(=O)NC(=O)[C@]12Cc1ccc(NC(=O)Cn3c(=O)n(C4CCOC4)c4ccccc43)cc1C2 (stereo not given in full)	1.30
O=C(Cn1c(=O)oc2ccccc21)Nc1ccc2c(c1)CCC1(C2)NC(=O)NC1=O (stereo not given)	2.78
COc1cccc(-n2c(=O)n(CC(=O)Nc3ccc4c(c3)C[C@]3(C4)C(=O)NC(=O)N3C)c3ccccc32)n1	1.18
O=C(Cn1c(=O)oc2ccccc21)Nc1ccc2c(c1)CC1(C2)NC(=O)NC1=O (stereo not given)	2.49

Item CN1C(=O)NC(=O)[C@]12Cc1ccc(NC(=O)Cn3c(=O)n(-c4cnccn4)c4ccccc43)cc1C2 with Calcitonin gene-related peptide type 1 receptor (Homo sapiens, UniProt O60894+Q16602) - log10(Ki)? 1.08

Provide value of log10(Ki) for this record tested with Calcitonin gene-related peptide type 1 receptor (Homo sapiens, UniProt O60894+Q16602): O=C(Cn1c(=O)n(-c2ccccc2)c2ccccc21)Nc1ccc2c(c1)CC1(C2)NC(=O)NC1=O (stereo not given) 1.94

Query log10(Ki) on Calcitonin gene-related peptide type 1 receptor (Homo sapiens, UniProt O60894+Q16602) for CN1C(=O)NC(=O)[C@]12Cc1ccc(NC(=O)Cn3c(=O)oc4ccccc43)cc1C2 1.68

Form entry - test system: Calcitonin gene-related peptide type 1 receptor (Homo sapiens, UniProt O60894+Q16602); read-out: log10(Ki); compound: CN1C(=O)NC(=O)[C@]12Cc1ccc(NC(=O)Cn3c(=O)n(-c4ncccn4)c4ccccc43)cc1C2 1.40

Hi! What's the reported log10(Ki) for CN1C(=O)NC(=O)[C@@]12Cc1ccc(NC(=O)Cn3c(=O)oc4ccccc43)cc1C2 on Calcitonin gene-related peptide type 1 receptor (Homo sapiens, UniProt O60894+Q16602)? 3.02
